Tested on: Raji Burkitt's lymphoma cells
Experiment: Proliferation assay (MTT, 72 h)
Format: cell-based
Conditions: Homo sapiens, 72 h incubation, mean ±SD (3 experiments)
Protocol: The human cancer cell types (neuroepithelioma (SK-N-MC), colon cancer (HCT116 with wild-type p53 (p53^+/+)), Burkitt's lymphoma (Raji) and cervical carcinoma (HeLa)) cells and normal human dermal fibroblasts (NHDF) were obtained from the American Type Culture Collection (ATCC, Manassas, VA, USA). […] Chelator stock solutions were prepared in DMSO and diluted in media so that the final [DMSO] <0.05%. […] The optical density of the samples was analyzed at 490 nm. […]
pIC50: −log10 of the molar value.
measure: pIC50

Please review the entries below; each comes with its answer.
[
  {
    "compound": "CCN1CCN(C(=S)N/N=C/c2ccccc2O)CC1 [6a]",
    "pIC50": 4.99
  },
  {
    "compound": "Oc1ccc2cccnc2c1/C=N/NC(=S)N1CCN(c2ccccn2)CC1 [4d]",
    "pIC50": 5.81
  },
  {
    "compound": "CN(C(=S)N/N=C/c1ccccc1O)C1CCCCC1 [6f]",
    "pIC50": 6.16
  },
  {
    "compound": "S=C(N/N=C/c1cnc2ccccc2n1)N1CCN(c2cnccn2)CC1 [5e]",
    "pIC50": 6.57
  },
  {
    "compound": "S=C(N/N=C/c1ccc2ccccc2n1)N1CCN(c2cnccn2)CC1 [2e]",
    "pIC50": 6.54
  }
]

1: Oc1cccc2ccc(/C=N/NC(=S)N3CCOCC3)nc12 [3c]
2: S=C(N/N=C/c1cnc2ccccc2n1)N1CCOCC1 [5c]
3: S=C(N/N=C/c1cnc2ccccc2n1)N1CCN(c2ccccc2)CC1 [5b]
4: Oc1ccccc1/C=N/NC(=S)N1CCN(c2cnccn2)CC1 [6e]
5: Oc1ccccc1/C=N/NC(=S)N1CCOCC1 [6c]
query: Rank descending by pIC50. Please reply with the labels ordered as requested. Many thanks.
result: 1, 2, 3, 5, 4
